# SUBJECT OF TEST: T1, human G-protein-coupled receptor family C group 5 member D (GPRC5D) (human, UniProt Q9NZD1 1-345)
# T1 construct: whole, on cells; also called human GPRC5D protein
# ASSAY PROTOCOL: FACS, CHO-K1/GPRC5D
This listing pairs binders with measured LogEC50.
Enter a number only.

BINDER	RECORDED METRIC	NUMBER
34-H1L2 (antibody, V domains shown, humanized 34D3H1, VH v1 x VL v2) VH: EVQLVESGGGLVKPGGSLRLSCAASGFTFSSYGMSWVRQAPGKGLEWVSTISSGGSYTYYPDSVKGRFTISRDNAKNSLYLQMNSLRAEDTAVYYCARQGGDAMDYWGQGTLVTVSS VL: DIQMTQSPSSLSASVGDRVTITCRASQSINNNLHWYQQKPGKAPKLLIYYASQSISGIPSRFSGSGSGTDFTLTISSVQPEDFATYFCQQSNSRLTFGGGTKVEIK	LogEC50	0.584
34-H1L1 (antibody, V domains shown, humanized 34D3H1, VH v1 x VL v1) VH: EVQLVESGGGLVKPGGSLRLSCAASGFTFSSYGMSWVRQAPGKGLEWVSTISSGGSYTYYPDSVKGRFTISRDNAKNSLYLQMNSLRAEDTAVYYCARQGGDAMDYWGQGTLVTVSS VL: DIQMTQSPSSLSASVGDRVTITCRASQSINNNLHWYQQKPGKAPKLLIYYASQSISGVPSRFSGSGSGTDFTLTISSLQPEDFATYYCQQSNSRLTFGGGTKVEIK	LogEC50	0.591

q: GET /values?readout=LogEC50&item= 34-H2L2 (antibody, V domains shown, humanized 34D3H1, VH v2 x VL v2) VH: EVQLVESGGGLVKPGGSLRLSCAASGFTFSSYGMSWVRQTPGKGLEWVATISSGGSYTYYPDSVKGRFTISRDNAKNSLYLQMSSLRAEDTAVYYCARQGGDAMDYWGQGTLVTVSS VL: DIQMTQSPSSLSASVGDRVTITCRASQSINNNLHWYQQKPGKAPKLLIYYASQSISGIPSRFSGSGSGTDFTLTISSVQPEDFATYFCQQSNSRLTFGGGTKVEIK
a: 0.625

q: GET /values?readout=LogEC50&item= 34-H3L3 (antibody, V domains shown, humanized 34D3H1, VH v3 x VL v3) VH: EVHLVESGGGLVKPGGSLRLSCAASGFTFSSYGMSWVRQTPGKRLEWVATISSGGSYTYYPDSVKGRFTISRDNAKNSLNLQMSSLRAEDTAVYYCARQGGDAMDYWGQGTLVTVSS VL: DIQLTQSPSSLSASVGDRVTITCRASQSINNNLHWYQQKPGKSPKLLIYYASQSISGIPSRFSGSGSGTDFTLTISSVQPEDFATYFCQQSNSRLTFGGGTKLEIK
a: 0.651
